- Tested On: PIK3CA (Homo sapiens, UniProt P42336)
- Construct: endogenous in cells
- Assay Procedure: In vitro ELISA target engagement assay for PIK3CA in Jurkat cellular lysate (competition with PIK3CA Biotin Probe)
- Run Parameters: 1 hour at rt, then 500 nM PIK3CA Biotin Probe, read-out: Elisa Target Engagement Assay (TE50)
Reported IC50 by item:
Measurement Type: IC50

{"Compound": "COc1ccc(Cl)c(-c2cc(N(C)C)ccc2S(=O)(=O)N2CCC(F)(C(=O)N[C@@H](C)/C=C\\S(C)(=O)=O)CC2)c1", "Observed Value": "390 nM"}
{"Compound": "C[C@@H](/C=C\\S(C)(=O)=O)NC(=O)C1(F)CCN(S(=O)(=O)c2ccc(Cl)cc2-c2cccc(OCc3cccc(Cl)c3)c2)CC1", "Observed Value": "750 nM"}
{"Compound": "COc1ccc(S(=O)(=O)N2CC[C@@](F)(C(=O)N[C@H](C)/C=C\\S(C)(=O)=O)C[C@@H]2C)c(-c2ccccc2Cl)c1 (single isomer, unassigned)", "Observed Value": "600 nM"}
{"Compound": "COC[C@@H](/C=C\\S(C)(=O)=O)NC(=O)C1(F)CCN(S(=O)(=O)c2ccc(OC)cc2-c2ccccc2Cl)CC1", "Observed Value": "170 nM"}
{"Compound": "C[C@H](/C=C\\S(C)(=O)=O)NC(=O)[C@@]1(F)CCCN(C(=O)[C@H]2CN(CC(F)(F)F)CC[C@@H]2c2ccccc2Cl)CC1 (single isomer, unassigned)", "Observed Value": "850 nM"}
{"Compound": "C[C@H](/C=C\\S(C)(=O)=O)NC(=O)C1(F)CCN(S(=O)(=O)c2ccc(OC(F)(F)F)cc2-c2ccccc2Cl)CC1", "Observed Value": "550 nM"}
{"Compound": "C[C@H](/C=C\\S(C)(=O)=O)NC(=O)C1(F)CCN(S(=O)(=O)c2ccc(N3CCC3)cc2-c2ccccc2Cl)CC1", "Observed Value": "320 nM"}

---

Below: a set of entries, each annotated with reported pIC50.
- Tested On: PIK3CA (Homo sapiens, UniProt P42336)
- Construct: endogenous in cells
- Assay Procedure: In vitro ELISA target engagement assay for PIK3CA in Jurkat cellular lysate (competition with PIK3CA Biotin Probe)
- Run Parameters: 1 hour at rt, then 500 nM PIK3CA Biotin Probe, read-out: Elisa Target Engagement Assay (TE50)
pIC50: −log10 of the molar value.
Measurement Type: pIC50

{"Compound": "COc1cc(-c2ccccc2C)c(S(=O)(=O)N2CCC(F)(C(=O)N[C@H](C)/C=C\\S(C)(=O)=O)CC2)cn1 [Compound 193]", "Observed Value": 6.54}
{"Compound": "COc1cc(-c2ccccc2Cl)c(S(=O)(=O)N2CCC(F)(C(=O)N[C@H](C)/C=C\\S(C)(=O)=O)CC2)cc1Cl [Compound 29]", "Observed Value": 6.24}
{"Compound": "C[C@H](/C=C\\S(C)(=O)=O)NC(=O)[C@@]1(F)CCCN(C(=O)[C@H]2CN(CCC(F)(F)F)C[C@H]2c2ccccc2Cl)CC1 [Compound 196]", "Observed Value": 6.28}
{"Compound": "C[C@H](/C=C\\S(C)(=O)=O)NC(=O)C1(F)CCN(S(=O)(=O)c2ccc(Cl)cc2-c2ccccc2Cl)CC1 [Compound 23]", "Observed Value": 7.04}

---

- Tested On: PIK3CA_C242 (Homo sapiens)
- Construct: endogenous in cells
- Sequence (P42336 whole entry): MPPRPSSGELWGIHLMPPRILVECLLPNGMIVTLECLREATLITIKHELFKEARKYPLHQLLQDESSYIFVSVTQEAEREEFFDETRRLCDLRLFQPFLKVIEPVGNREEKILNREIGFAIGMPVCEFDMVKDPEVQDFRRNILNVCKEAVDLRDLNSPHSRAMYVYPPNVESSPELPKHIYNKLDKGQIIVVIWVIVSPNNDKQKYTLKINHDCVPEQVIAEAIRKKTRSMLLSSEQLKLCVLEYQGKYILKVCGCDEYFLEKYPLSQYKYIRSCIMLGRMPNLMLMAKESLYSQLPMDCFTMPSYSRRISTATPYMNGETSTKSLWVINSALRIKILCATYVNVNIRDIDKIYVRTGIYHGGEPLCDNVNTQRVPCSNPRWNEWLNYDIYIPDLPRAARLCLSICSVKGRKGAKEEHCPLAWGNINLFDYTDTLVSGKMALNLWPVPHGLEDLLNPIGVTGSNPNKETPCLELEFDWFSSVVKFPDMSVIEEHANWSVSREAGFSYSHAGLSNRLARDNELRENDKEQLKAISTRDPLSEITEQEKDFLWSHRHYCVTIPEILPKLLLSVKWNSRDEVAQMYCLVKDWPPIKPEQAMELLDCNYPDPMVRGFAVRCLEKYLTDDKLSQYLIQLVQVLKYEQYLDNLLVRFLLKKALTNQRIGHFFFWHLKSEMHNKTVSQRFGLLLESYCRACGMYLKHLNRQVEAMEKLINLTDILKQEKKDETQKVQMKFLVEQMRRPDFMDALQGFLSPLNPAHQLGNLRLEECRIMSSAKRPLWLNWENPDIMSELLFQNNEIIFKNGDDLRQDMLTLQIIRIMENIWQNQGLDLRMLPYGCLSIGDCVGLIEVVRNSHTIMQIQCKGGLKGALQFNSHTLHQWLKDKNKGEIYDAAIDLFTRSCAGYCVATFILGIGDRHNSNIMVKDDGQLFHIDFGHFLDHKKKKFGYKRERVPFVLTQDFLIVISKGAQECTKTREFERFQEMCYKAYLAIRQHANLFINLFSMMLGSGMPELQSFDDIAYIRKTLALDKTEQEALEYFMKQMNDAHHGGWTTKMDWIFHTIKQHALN
- Sequence (P27986 whole entry partner): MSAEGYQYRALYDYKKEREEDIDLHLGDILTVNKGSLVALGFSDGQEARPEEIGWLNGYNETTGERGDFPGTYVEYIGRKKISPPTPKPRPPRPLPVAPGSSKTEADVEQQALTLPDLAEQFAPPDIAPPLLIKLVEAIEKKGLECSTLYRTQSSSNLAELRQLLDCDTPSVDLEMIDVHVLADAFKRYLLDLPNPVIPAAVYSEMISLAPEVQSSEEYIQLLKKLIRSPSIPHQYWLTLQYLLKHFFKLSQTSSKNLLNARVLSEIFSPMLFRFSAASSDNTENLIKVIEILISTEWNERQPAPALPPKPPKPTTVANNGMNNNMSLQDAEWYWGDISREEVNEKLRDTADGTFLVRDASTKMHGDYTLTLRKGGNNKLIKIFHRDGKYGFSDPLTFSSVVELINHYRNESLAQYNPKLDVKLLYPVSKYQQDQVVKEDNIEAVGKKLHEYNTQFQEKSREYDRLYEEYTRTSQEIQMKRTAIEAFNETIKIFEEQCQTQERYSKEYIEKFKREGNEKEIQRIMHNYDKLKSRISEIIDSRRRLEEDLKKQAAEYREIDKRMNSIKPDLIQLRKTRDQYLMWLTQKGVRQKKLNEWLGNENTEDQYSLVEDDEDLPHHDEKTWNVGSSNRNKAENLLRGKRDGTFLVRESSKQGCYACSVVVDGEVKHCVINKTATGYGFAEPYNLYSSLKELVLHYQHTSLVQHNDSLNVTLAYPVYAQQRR
- Assay Procedure: Proteomic TE50 (IA-DTB / TMT mass spectrometry) in Jurkat cell lysate
- Run Parameters: 1 hour at rt, 7-point dose response

{"Compound": "COc1cc(-c2ccccc2C)c(S(=O)(=O)N2CCC(F)(C(=O)N[C@H](C)/C=C\\S(C)(=O)=O)CC2)cn1 [Compound 193]", "Reading Unit": "nM", "IC50": 284}
{"Compound": "COc1ccc(S(=O)(=O)N2CCC(F)(C(=O)N3CC(/C=C\\S(C)(=O)=O)C3)CC2)c(-c2ccccc2Cl)c1 [Compound 230]", "Reading Unit": "nM", "IC50": 140}
{"Compound": "COc1ccc(S(=O)(=O)N2CCC(F)(C(=O)N[C@H](C)/C=C\\S(C)(=O)=O)CC2)c(-c2ccc(F)cc2Cl)c1 [Compound 27]", "Reading Unit": "nM", "IC50": 430}
{"Compound": "COc1cc(-c2ccccc2Cl)c(S(=O)(=O)N2CCC(F)(C(=O)N[C@H](C)/C=C\\S(C)(=O)=O)CC2)cc1OC [Compound 202]", "Reading Unit": "nM", "IC50": 180}
{"Compound": "C[C@H](/C=C\\S(C)(=O)=O)NC(=O)C1(F)CCN(S(=O)(=O)c2ccc(C(F)(F)F)cc2-c2ccccc2Cl)CC1 [Compound 33]", "Reading Unit": "nM", "IC50": 133}
{"Compound": "C[C@@H](/C=C\\S(C)(=O)=O)NC(=O)C1(F)CCN(S(=O)(=O)c2ccc(Cl)cc2-c2ccccc2Cl)CC1 [Compound 6]", "Reading Unit": "nM", "IC50": 26}
{"Compound": "COc1cccc(-c2ccccc2S(=O)(=O)N2CCC(F)(C(=O)NC/C=C/S(=O)(=O)C3CCN(C)CC3)CC2)c1 [Compound 228]", "Reading Unit": "nM", "IC50": 690}
{"Compound": "C[C@H](/C=C\\S(C)(=O)=O)NC(=O)C1(F)CCN(S(=O)(=O)c2ccc(C#N)cc2-c2ccccc2Cl)CC1 [Compound 35]", "Reading Unit": "nM", "IC50": 140}
{"Compound": "CC#Cc1ccc(S(=O)(=O)N2CCC(F)(C(=O)N[C@H](C)/C=C\\S(C)(=O)=O)CC2)c(-c2ccccc2Cl)c1 [Compound 131]", "Reading Unit": "nM", "IC50": 209}
{"Compound": "COc1cccc(-c2cc(N(C)C)ccc2S(=O)(=O)N2CCC(F)(C(=O)NC/C=C/S(C)(=O)=O)CC2)c1 [Compound 96]", "Reading Unit": "nM", "IC50": 410}
{"Compound": "N#C/C=C/CNC(=O)C1(F)CCN(S(=O)(=O)c2cnc(Br)cc2-c2ccccc2Cl)CC1 [Compound 278]", "Reading Unit": "nM", "IC50": 240}
{"Compound": "Cc1ccccc1-c1cc(N2CCOCC2)ccc1S(=O)(=O)N1CCC(F)(C(=O)N[C@H](C)/C=C\\S(C)(=O)=O)CC1 [Compound 122]", "Reading Unit": "nM", "IC50": 490}
{"Compound": "C[C@H](/C=C\\S(C)(=O)=O)NC(=O)C1(F)CCN(S(=O)(=O)c2ccc(OC3CC3)cc2-c2ccccc2Cl)CC1 [Compound 101]", "Reading Unit": "nM", "IC50": 860}
{"Compound": "C[C@H](/C=C\\S(C)(=O)=O)NC(=O)C1(F)CCN(S(=O)(=O)c2cnc(O)cc2-c2ccccc2Cl)CC1 [Compound 276]", "Reading Unit": "nM", "IC50": 570}

---

- Tested On: PIK3CA (Homo sapiens)
- Construct: endogenous in cells
- Assay Procedure: In vitro ELISA target engagement assay for PIK3CA in Jurkat cellular lysate (competition with PIK3CA Biotin Probe)
- Run Parameters: 1 hour at rt, then 500 nM PIK3CA Biotin Probe, read-out: Elisa Target Engagement Assay (TE50)
pIC50: −log10 of the molar value.
pIC50 values, listed per item

{"Compound": "C[C@H](/C=C/C(=O)N1CC(F)(F)C1)NC(=O)[C@]1(F)CCN(S(=O)(=O)c2ccc(Br)cc2-c2cccc(Cl)c2)[C@H](C)C1 [Compound 155]", "pIC50": 6.52}
{"Compound": "C[C@H](/C=C\\S(C)(=O)=O)NC(=O)C1(F)CCN(C(=O)[C@H]2CN(C(=O)C(C)(C)C)C[C@H]2c2ccccc2Cl)CC1 [Compound 161]", "pIC50": 6.10}
{"Compound": "N#C/C=C/CNC(=O)C1(F)CCN(S(=O)(=O)c2ccc(Br)cc2-c2ccccc2Cl)CC1 [Compound 68]", "pIC50": 6.33}
{"Compound": "C[C@H](/C=C/C(=O)N1CC(F)(F)C1)NC(=O)[C@@]1(F)CCCN(C(=O)c2ccc(C(F)(F)F)cc2-c2ccccc2Cl)CC1 [Compound 244]", "pIC50": 6.11}
{"Compound": "COc1cccc(-c2cc(Cl)ccc2S(=O)(=O)N2CCC(C)(C(=O)N[C@H](C)/C=C\\S(C)(=O)=O)CC2)c1 [Compound 203]", "pIC50": 6.01}
{"Compound": "C[C@H](/C=C\\S(C)(=O)=O)NC(=O)[C@@]1(F)CCCN(C(=O)[C@H]2CN(CC(F)(F)F)C[C@H]2c2ccc(F)cc2Cl)CC1 (single isomer, unassigned) [Compound 167]", "pIC50": 6.24}
{"Compound": "C[C@H](/C=C\\S(C)(=O)=O)NC(=O)C1(F)CCN(S(=O)(=O)c2ccc(Br)cc2-c2ccccc2)CC1 [Compound 57]", "pIC50": 6.24}
{"Compound": "Cc1ccccc1-c1cc(N(C)C)ccc1S(=O)(=O)N1CCC(F)(C(=O)N[C@H](C)/C=C\\S(C)(=O)=O)CC1 [Compound 93]", "pIC50": 6.82}
{"Compound": "C[C@H](/C=C/C(=O)N1CC(F)(F)C1)NC(=O)[C@@]1(F)CCCN(C(=O)c2ccc(Br)cc2-c2ccccc2Cl)CC1 [Compound 243]", "pIC50": 6.17}
{"Compound": "C[C@H](/C=C/S(C)(=O)=O)NC(=O)[C@@]1(F)CCCN(C(=O)[C@H]2CN(CC(F)(F)F)C[C@H]2c2c(F)cccc2Cl)CC1 [Compound 296]", "pIC50": 6.40}
{"Compound": "C[C@H](/C=C\\S(C)(=O)=O)NC(=O)[C@@]1(F)CCCN(C(=O)c2ccc(C(F)(F)F)cc2-c2ccccc2Cl)CC1 [Compound 242]", "pIC50": 7.14}
{"Compound": "Cc1cccc([C@@H]2CN(CC(F)(F)F)C[C@@H]2C(=O)N2CCC[C@](F)(C(=O)N[C@H](C)/C=C\\S(C)(=O)=O)CC2)c1Cl (single isomer, unassigned) [Compound 172]", "pIC50": 6.24}
